system: Aspergillus fumigatus; test: Antifungal activity against Aspergillus fumigatus by broth dilution method; assay type: functional
Starred links: 1 amine or outer side, 2 acyl side, 3 side chain; linkers in the order of their positions; H or OH if unused. Non-standard residues stand in square brackets, D forms with d. Residues, ends and D or L forms follow the SMILES beside them. X4 = CN([C@@H](Cc1cccc(-c2ccc(-c3ccccc3)cc2)c1)C(=O)[*:2])[*:1]; X7 = CN([C@@H](Cc1cccc(B2OC(C)(C)C(C)(C)O2)c1)C(=O)[*:2])[*:1]; NMePhe(3-(3-pyridyl)) = CN[C@@H](Cc1cccc(-c2cccnc2)c1)C(=O)O; X8 = CN([C@@H](Cc1cccc(-c2ccc(Cl)nc2)c1)C(=O)[*:2])[*:1]; NMePhe(3-Ph) = CN[C@@H](Cc1cccc(-c2ccccc2)c1)C(=O)O; X5 = CN([C@@H](Cc1cccc(B(O)O)c1)C(=O)[*:2])[*:1]; NMePhe(3-Br) = CN[C@@H](Cc1cccc(Br)c1)C(=O)O; X1 = CC[C@@H](C)[C@@H](O[*:1])C(=O)[*:2]; Hmp(2R,3S) = CC[C@H](C)[C@@H](O)C(=O)O; NMeVal(β-OH) = CN[C@H](C(=O)O)C(C)(C)O; NMeF = CN[C@@H](Cc1ccccc1)C(=O)O; aIle = CC[C@@H](C)[C@H](N)C(=O)O; NMeD = CN[C@@H](CC(=O)O)C(=O)O; NMeV = CN[C@H](C(=O)O)C(C)C
Listed molecules paired with reported MIC
Parameter Measured: MIC

INSERT INTO measurements (molecule, parameter_measured, meas_value) VALUES
  ('CC[C@H](C)[C@@H]1NC(=O)[C@@H]2CCCN2C(=O)[C@H](Cc2cccc(Br)c2)N(C)C(=O)[C@H](Cc2ccccc2)NC(=O)[C@H](C(C)C)N(C)C(=O)[C@@H]([C@@H](C)CC)OC(=O)[C@H](C(C)(C)O)N(C)C(=O)[C@H](CC(C)C)NC(=O)[C@H](C(C)C)N(C)C1=O (cyclo(F[NMePhe(3-Br)]PI[NMeV]L[NMeVal(β-OH)][Hmp(2R,3S)][NMeV]))', 'MIC', '2.5 µg/mL'),
  ('CC[C@H](C)[C@@H]1NC(=O)[C@@H]2CCCN2C(=O)[C@H](Cc2cccc(-c3ccc(Cl)nc3)c2)N(C)C(=O)[C@H](Cc2ccccc2)NC(=O)[C@H](C(C)C)N(C)C(=O)[C@@H]([C@@H](C)CC)OC(=O)[C@H](C(C)(C)O)N(C)C(=O)[C@H](CC(C)C)NC(=O)[C@H](C(C)C)N(C)C1=O (cyclo(F[X8]PI[NMeV]L[NMeVal(β-OH)][Hmp(2R,3S)][NMeV]))', 'MIC', '< 1.25 µg/mL'),
  ('CC[C@H](C)[C@@H]1NC(=O)[C@@H]2CCCN2C(=O)[C@H](Cc2cccc(-c3ccccc3)c2)N(C)C(=O)[C@H](Cc2ccccc2)NC(=O)[C@H](C(C)C)N(C)C(=O)[C@@H]([C@@H](C)CC)OC(=O)[C@H](C(C)(C)O)N(C)C(=O)[C@H](CC(C)C)NC(=O)[C@H](C(C)C)N(C)C1=O (cyclo(F[NMePhe(3-Ph)]PI[NMeV]L[NMeVal(β-OH)][Hmp(2R,3S)][NMeV]))', 'MIC', '< 0.94 µg/mL'),
  ('CC[C@@H](C)[C@@H]1NC(=O)[C@@H]2CCCN2C(=O)[C@H](Cc2ccccc2)N(C)C(=O)[C@H](Cc2ccccc2)NC(=O)[C@H](C(C)C)N(C)C(=O)[C@@H]([C@H](C)CC)OC(=O)[C@H](C(C)(C)O)N(C)C(=O)[C@H](CC(C)C)NC(=O)[C@H](C(C)C)N(C)C1=O [AUREOBASIDIN A] (cyclo(F[NMeF]P[aIle][NMeV]L[NMeVal(β-OH)][X1][NMeV]))', 'MIC', '> 25 µg/mL'),
  ('CC[C@H](C)[C@@H]1NC(=O)[C@@H]2CCCN2C(=O)[C@H](Cc2cccc(-c3ccc(-c4ccccc4)cc3)c2)N(C)C(=O)[C@H](Cc2ccccc2)NC(=O)[C@H](C(C)C)N(C)C(=O)[C@@H]([C@@H](C)CC)OC(=O)[C@H](C(C)(C)O)N(C)C(=O)[C@H](CC(C)C)NC(=O)[C@H](C(C)C)N(C)C1=O (cyclo(F[X4]PI[NMeV]L[NMeVal(β-OH)][Hmp(2R,3S)][NMeV]))', 'MIC', '> 5 µg/mL'),
  ('CC[C@H](C)[C@@H]1NC(=O)[C@@H]2CCCN2C(=O)[C@H](CC(=O)O)N(C)C(=O)[C@H](CC(=O)O)NC(=O)[C@H](C(C)C)N(C)C(=O)[C@@H]([C@@H](C)CC)OC(=O)[C@H](C(C)(C)O)N(C)C(=O)[C@H](CC(C)C)NC(=O)[C@H](C(C)C)N(C)C1=O (cyclo(D[NMeD]PI[NMeV]L[NMeVal(β-OH)][Hmp(2R,3S)][NMeV]))', 'MIC', '> 100 µg/mL'),
  ('CC[C@H](C)[C@@H]1NC(=O)[C@@H]2CCCN2C(=O)[C@H](Cc2cccc(B3OC(C)(C)C(C)(C)O3)c2)N(C)C(=O)[C@H](Cc2ccccc2)NC(=O)[C@H](C(C)C)N(C)C(=O)[C@@H]([C@@H](C)CC)OC(=O)[C@H](C(C)(C)O)N(C)C(=O)[C@H](CC(C)C)NC(=O)[C@H](C(C)C)N(C)C1=O (cyclo(F[X7]PI[NMeV]L[NMeVal(β-OH)][Hmp(2R,3S)][NMeV]))', 'MIC', '10 µg/mL'),
  ('CC[C@H](C)[C@@H]1NC(=O)[C@@H]2CCCN2C(=O)[C@H](Cc2cccc(Br)c2)N(C)C(=O)[C@H](CC(=O)O)NC(=O)[C@H](C(C)C)N(C)C(=O)[C@@H]([C@@H](C)CC)OC(=O)[C@H](C(C)(C)O)N(C)C(=O)[C@H](CC(C)C)NC(=O)[C@H](C(C)C)N(C)C1=O (cyclo(D[NMePhe(3-Br)]PI[NMeV]L[NMeVal(β-OH)][Hmp(2R,3S)][NMeV]))', 'MIC', '10 µg/mL'),
  ('CC[C@H](C)[C@@H]1NC(=O)[C@@H]2CCCN2C(=O)[C@H](Cc2cccc(-c3cccnc3)c2)N(C)C(=O)[C@H](Cc2ccccc2)NC(=O)[C@H](C(C)C)N(C)C(=O)[C@@H]([C@@H](C)CC)OC(=O)[C@H](C(C)(C)O)N(C)C(=O)[C@H](CC(C)C)NC(=O)[C@H](C(C)C)N(C)C1=O (cyclo(F[NMePhe(3-(3-pyridyl))]PI[NMeV]L[NMeVal(β-OH)][Hmp(2R,3S)][NMeV]))', 'MIC', '< 0.94 µg/mL'),
  ('CC[C@H](C)[C@@H]1NC(=O)[C@@H]2CCCN2C(=O)[C@H](Cc2cccc(B(O)O)c2)N(C)C(=O)[C@H](Cc2ccccc2)NC(=O)[C@H](C(C)C)N(C)C(=O)[C@@H]([C@@H](C)CC)OC(=O)[C@H](C(C)(C)O)N(C)C(=O)[C@H](CC(C)C)NC(=O)[C@H](C(C)C)N(C)C1=O (cyclo(F[X5]PI[NMeV]L[NMeVal(β-OH)][Hmp(2R,3S)][NMeV]))', 'MIC', '> 100 µg/mL');
